biological target: CDK2 CCNA2 (human) (UniProt P24941+P20248); experiment: radiometric filter-binding kinase assay, Kinase HotSpot; conditions: compound 0.5 µM; ATP 10 µM
Sequence (P20248 whole entry, looked up, other chains not shown): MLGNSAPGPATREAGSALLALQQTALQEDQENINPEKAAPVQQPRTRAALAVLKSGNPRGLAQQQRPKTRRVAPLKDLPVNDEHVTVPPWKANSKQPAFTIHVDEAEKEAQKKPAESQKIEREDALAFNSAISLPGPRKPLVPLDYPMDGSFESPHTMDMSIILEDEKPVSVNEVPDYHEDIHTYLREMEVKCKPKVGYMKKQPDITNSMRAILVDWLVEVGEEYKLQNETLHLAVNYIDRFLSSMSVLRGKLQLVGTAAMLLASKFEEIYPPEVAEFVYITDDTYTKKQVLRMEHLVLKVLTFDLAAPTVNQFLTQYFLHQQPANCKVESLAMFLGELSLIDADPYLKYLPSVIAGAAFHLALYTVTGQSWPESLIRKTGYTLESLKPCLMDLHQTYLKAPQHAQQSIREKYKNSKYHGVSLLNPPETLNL
Measured parameter: residual activity (%)

> print(dat)
                             smiles.notation  numeric.value
 1  CO[C@@H]1[C@H](N(C)C(=O)c2ccccc2)C[C@H]2O[C@]1(C)n1c3ccccc3c3c4c(c5c6ccccc6n2c5c31)C(=O)NC4           66.6
 2  CN(C)S(=O)(=O)c1ccc2c(c1)/C(=C/c1cc3c([nH]1)CCCC3)C(=O)N2           90.6
 3               c1ccc2c(-c3ccncc3)c[nH]c2c1           99.7
 4  Cc1cn(-c2cc(NC(=O)c3ccc(C)c(Nc4nccc(-c5cccnc5)n4)c3)cc(C(F)(F)F)c2)cn1           95.5
 5  N#Cc1c[nH]c2c[nH]/c(=N\Cc3cccnc3)cc2/c1=N\c1ccc(F)c(Cl)c1           75.1
 6  COc1ccc(C(=O)Nc2sc3c(c2C(N)=O)CCCC3)cc1OC            103
 7  C[C@@H]1CCN(C(=O)CC#N)C[C@@H]1N(C)c1ncnc2[nH]ccc12           89.5
 8  Cn1c2ccccc2c2c3c(c4c5ccccc5n(CCC#N)c4c21)CNC3=O           20.8
 9  O=C(c1cc2cc(O)ccc2[nH]1)c1cc2cc(O)ccc2[nH]1           61.5
10        CC(C)(C)c1cc(C=C(C#N)C#N)cc(Br)c1O           90.7
11            O=C1c2ccccc2-c2n[nH]c3cccc1c23           76.1
12            Cc1nc(-c2ccccc2)c(-c2ccncc2)o1            104
13  Cc1cccc(-c2nc(C(C)(C)C)[nH]c2-c2ccc3c(c2)OCO3)n1            117
14       Fc1ccc(-c2nc3n(c2-c2ccncc2)CCS3)cc1            101
15  CS(=O)(=O)CCNCc1ccc(-c2ccc3ncnc(Nc4ccc(OCc5cccc(F)c5)c(Cl)c4)c3c2)o1           94.5
16  NC(=O)c1cccc(-c2cc(Nc3ccc(OC(F)(F)F)cc3)ncn2)c1           96.5
17      CN(C)c1ccc(/C=C2\C(=O)Nc3ccccc32)cc1            102
18  O=C1C(Cl)=C(N2C(=O)CCC2=O)C(=O)c2ccccc21            109

###

molecular target: PRKD2 (human); assay: radiometric filter-binding kinase assay, Kinase HotSpot; conditions: compound 0.5 µM; ATP 10 µM
The threshold is inclusive: residual activity of exactly 90% counts as criterion met; values below receive criterion not met.

> print(dat)
                             smiles.notation         class.name
 1  COc1ccc(S(=O)(=O)N(CCO)c2ccccc2CN(C)C/C=C/c2ccc(Cl)cc2)cc1      criterion met
 2  COc1cc2ncnc(Nc3ccc(OCc4ccccc4)cc3)c2cc1OC      criterion met
 3      CN(C)c1ccc(/C=C2\C(=O)Nc3ccccc32)cc1      criterion met
 4               c1ccc2c(-c3ccncc3)c[nH]c2c1      criterion met
 5       CCCCc1c(-c2ccc(OC)cc2)[nH]c2nccnc12      criterion met
 6     COc1ccc2c(c1)/C(=C/c1cnc[nH]1)C(O)=N2  criterion not met
 7    COc1ccc(Cl)cc1NC(=O)Nc1cc(C)nc2ccccc12      criterion met
 8  COc1ccc(C(=O)Nc2sc3c(c2C(N)=O)CCCC3)cc1OC      criterion met
 9   N#C/C(=C\c1ccc(O)c(O)c1)C(=O)NCc1ccccc1      criterion met
10  O=C(c1cc2cc(O)ccc2[nH]1)c1cc2cc(O)ccc2[nH]1  criterion not met
11        CC(C)(C)c1cc(C=C(C#N)C#N)cc(Br)c1O      criterion met
12            Cc1nc(-c2ccccc2)c(-c2ccncc2)o1      criterion met
13  Cc1cccc(-c2nc(C(C)(C)C)[nH]c2-c2ccc3c(c2)OCO3)n1      criterion met
14    O=C1NC(=O)c2c1c1c3ccccc3[nH]c1n1cncc21  criterion not met
15  Cn1c2ccccc2c2c3c(c4c5ccccc5n(CCC#N)c4c21)CNC3=O  criterion not met
